Biological target: Human plasma kallikrein (h PK) (Homo sapiens, UniProt P03952)
Sequence (P03952 391-638 limits assumed): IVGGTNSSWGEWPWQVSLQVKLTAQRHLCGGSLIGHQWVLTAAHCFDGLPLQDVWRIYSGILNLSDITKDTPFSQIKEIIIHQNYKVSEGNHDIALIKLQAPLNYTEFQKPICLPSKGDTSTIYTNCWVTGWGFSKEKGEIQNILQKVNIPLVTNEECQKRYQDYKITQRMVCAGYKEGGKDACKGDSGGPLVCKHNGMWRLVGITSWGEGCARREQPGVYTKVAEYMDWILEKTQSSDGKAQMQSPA
Sequence (P03952 20-390 partner limits assumed): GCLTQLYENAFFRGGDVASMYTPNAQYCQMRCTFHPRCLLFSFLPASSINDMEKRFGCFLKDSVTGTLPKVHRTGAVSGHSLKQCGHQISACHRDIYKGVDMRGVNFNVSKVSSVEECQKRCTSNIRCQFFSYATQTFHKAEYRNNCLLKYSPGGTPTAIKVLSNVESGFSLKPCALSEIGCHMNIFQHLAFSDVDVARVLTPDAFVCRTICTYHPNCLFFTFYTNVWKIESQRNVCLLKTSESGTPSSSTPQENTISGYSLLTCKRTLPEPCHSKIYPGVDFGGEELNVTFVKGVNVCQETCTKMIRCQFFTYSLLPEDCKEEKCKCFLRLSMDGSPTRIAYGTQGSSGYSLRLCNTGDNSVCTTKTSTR
Assay: Inhibition of human plasma kallikrein (reference enzyme)
Conditions: S2302 substrate
Classes (Ki): Low = under 400 nM, Mid = from 400 nM up to 1000 nM, High = 1000 nM and over

# count of solved cases: 3
# Structure, Assigned category
records = [
    ("CN(C(=O)CC[C@@H](NS(=O)(=O)Cc1ccccc1)C(=O)N1CCC[C@H]1C(=O)NCc1cc(Cl)ccc1CN)C1CCNCC1", "High"),
    ("NCc1ccc(Cl)cc1CNC(=O)[C@@H]1CCCN1C(=O)[C@@H](CCC(=O)N1CCC(N)CC1)NS(=O)(=O)Cc1ccccc1", "High"),
    ("CN(CC1CCNCC1)C(=O)C[C@@H](NS(=O)(=O)Cc1ccccc1)C(=O)N1CCC[C@H]1C(=O)NCc1cc(Cl)ccc1CN", "Mid"),
]

query: State the band of NCc1ccc(Cl)cc1CNC(=O)[C@@H]1CCCN1C(=O)[C@@H](CC(=O)Nc1cc[n+]([O-])cc1)NS(=O)(=O)Cc1ccccc1
result: Mid

query: State the band of NCc1ccc(Cl)cc1CNC(=O)[C@@H]1C[C@@H](N)CN1C(=O)[C@@H](CC(=O)N1CCNCC1)NS(=O)(=O)Cc1ccccc1
result: Mid

query: State the band of CN1CCN(C(=O)C[C@@H](NS(=O)(=O)Cc2ccccc2)C(=O)N2CCC[C@H]2C(=O)NCc2cc(Cl)ccc2CN)CC1
result: Low

query: State the band of NCc1ccc(Cl)cc1CNC(=O)[C@@H]1CCCN1C(=O)[C@@H](CC(=O)N1CC[S+]([O-])CC1)NS(=O)(=O)Cc1ccccc1
result: Mid

query: State the band of NCc1ccc(Cl)cc1CNC(=O)[C@@H]1C[C@H](N)CN1C(=O)[C@@H](CCC(=O)N1CCOCC1)NS(=O)(=O)Cc1ccccc1
result: High

query: State the band of NCc1ccc(Cl)cc1CNC(=O)[C@@H]1CCCN1C(=O)[C@@H](CC(=O)N1CC[C@H](O)C1)NS(=O)(=O)Cc1ccccc1
result: Mid

query: State the band of CN(C(=O)C[C@@H](NS(=O)(=O)Cc1ccccc1)C(=O)N1CCC[C@H]1C(=O)NCc1cc(Cl)ccc1CN)C1CCOCC1
result: Low

query: State the band of NCc1ccc(Cl)cc1CNC(=O)[C@@H]1C[C@@H](N)CN1C(=O)[C@@H](CC(=O)N1CCCCC1)NS(=O)(=O)Cc1ccccc1
result: Low

====

Let's go through some recorded log10 Ki values for human factor IIa (human alpha-thrombin) (Homo sapiens, UniProt P00734) together.
Structures can show the parent of a compound that is named as a salt.
For clarity, the numbers are log10 values of Ki expressed in nM.

// worked examples, log10 Ki included
# Molecule, Val
data = [
    ("NCc1ccc(Cl)cc1CNC(=O)[C@@H]1CCCN1C(=O)[C@@H](CC(=O)N1CCNCC1)NS(=O)(=O)Cc1ccccc1", 0.38),
    ("NCc1ccc(Cl)cc1CNC(=O)[C@@H]1C[C@@H](N)CN1C(=O)[C@@H](CCC(=O)N1CCOCC1)NS(=O)(=O)Cc1ccccc1", 0.67),
    ("NCc1ccc(Cl)cc1CNC(=O)[C@@H]1C[C@H](O)CN1C(=O)[C@@H](CCC(=O)N1CCOCC1)NS(=O)(=O)Cc1ccccc1", 1.93),
    ("CC(=O)N1CCN(C(=O)C[C@@H](NS(=O)(=O)Cc2ccccc2)C(=O)N2CCC[C@H]2C(=O)NCc2cc(Cl)ccc2CN)CC1", 0.80),
    ("NCc1ccc(Cl)cc1CNC(=O)[C@@H]1CCCN1C(=O)[C@@H](CCC(=O)N1CCC(N)CC1)NS(=O)(=O)Cc1ccccc1", -0.82),
]

Kindly review the next molecule as well.
query: Answer with reported log10 Ki of NCc1ccc(Cl)cc1CNC(=O)[C@@H]1CCCN1C(=O)[C@H](N)CCC(=O)N1CCOCC1 [Compound 2.49, TFA]
result: 0.90

====

Target: human Factor Xa (Homo sapiens)
Sequence (P00742 235-488 limits assumed): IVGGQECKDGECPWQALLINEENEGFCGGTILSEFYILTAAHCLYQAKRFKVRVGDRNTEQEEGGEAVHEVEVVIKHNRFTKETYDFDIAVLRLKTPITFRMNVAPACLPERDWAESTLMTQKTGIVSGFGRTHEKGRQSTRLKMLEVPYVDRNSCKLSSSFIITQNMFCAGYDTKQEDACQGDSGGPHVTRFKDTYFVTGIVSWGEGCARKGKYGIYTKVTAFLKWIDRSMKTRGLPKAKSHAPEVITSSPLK
Sequence (P00742 41-179 partner limits assumed): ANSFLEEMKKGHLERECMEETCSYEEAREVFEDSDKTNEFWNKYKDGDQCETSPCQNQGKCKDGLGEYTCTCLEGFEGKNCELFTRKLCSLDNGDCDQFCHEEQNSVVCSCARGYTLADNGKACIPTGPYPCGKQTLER
Counter-ions that a name gives are not always drawn.
Threshold 2 nM: Ki strictly smaller gives T, otherwise F.

# count of solved cases: 8
# Compound, Assigned category
rows = [
    ("CN(C(=O)C[C@@H](NS(=O)(=O)Cc1ccccc1)C(=O)N1CCC[C@H]1C(=O)NCc1cc(Cl)ccc1CN)C1CCNCC1 [Compound 2.3]", "F"),
    ("NCc1ccc(Cl)cc1CNC(=O)[C@@H]1CCCN1C(=O)[C@@H](CC(=O)N1CCCC1)NS(=O)(=O)Cc1ccccc1 [Compound 2.8]", "T"),
    ("NCc1ccc(Cl)cc1CNC(=O)[C@@H]1C[C@@H](N)CN1C(=O)[C@@H](CCC(=O)N1CCOCC1)NS(=O)(=O)Cc1ccccc1 [Compound 2.25]", "T"),
    ("NCc1ccc(Cl)cc1CNC(=O)[C@@H]1C[C@H](O)CN1C(=O)[C@@H](CCC(=O)N1CCOCC1)NS(=O)(=O)Cc1ccccc1 [Compound 2.22]", "T"),
    ("NCc1ccc(Cl)cc1CNC(=O)[C@@H]1CCN1C(=O)[C@@H](CC(=O)N1CCCCC1)NS(=O)(=O)Cc1ccccc1 [Compound 2.45]", "T"),
    ("NCc1ccc(Cl)cc1CNC(=O)[C@@H]1CCN1C(=O)[C@@H](CC(=O)N1CCNCC1)NS(=O)(=O)Cc1ccccc1 [Compound 2.50, TFA]", "F"),
    ("NCc1ccc(Cl)cc1CNC(=O)[C@@H]1CCCN1C(=O)[C@@H](CC(=O)N1CC[S+]([O-])CC1)NS(=O)(=O)Cc1ccccc1 [Compound 2.38]", "F"),
    ("CC(=O)N1CCN(C(=O)C[C@@H](NS(=O)(=O)Cc2ccccc2)C(=O)N2CCC[C@H]2C(=O)NCc2cc(Cl)ccc2CN)CC1 [Compound 2.40]", "F"),
]

query: Does the reported Ki of the following compound sit strictly below 2 nM? CN(C(=O)CC[C@@H](NS(=O)(=O)Cc1ccccc1)C(=O)N1CCC[C@H]1C(=O)NCc1cc(Cl)ccc1CN)C1CCNCC1 [Compound 2.27]
result: F

query: Does the reported Ki of the following compound sit strictly below 2 nM? NCc1ccc(Cl)cc1CNC(=O)[C@@H]1C[C@H](N)CN1C(=O)[C@@H](CC(=O)N1CCNCC1)NS(=O)(=O)Cc1ccccc1 [Compound 2.35]
result: T

query: Does the reported Ki of the following compound sit strictly below 2 nM? CN1CCN(C(=O)C[C@@H](NS(=O)(=O)Cc2ccccc2)C(=O)N2CCC[C@H]2C(=O)NCc2cc(Cl)ccc2CN)CC1 [Compound 2.18]
result: F

query: Does the reported Ki of the following compound sit strictly below 2 nM? NCc1ccc(Cl)cc1CNC(=O)[C@@H]1CCCN1C(=O)[C@@H](CC(=O)N1CCNCC1)NS(=O)(=O)Cc1ccccc1 [Compound 2.19]
result: T

query: Does the reported Ki of the following compound sit strictly below 2 nM? CC(=O)N1CCC(N(C)C(=O)CC[C@@H](NS(=O)(=O)Cc2ccccc2)C(=O)N2CCC[C@H]2C(=O)NCc2cc(Cl)ccc2CN)CC1 [Compound 2.28]
result: F

====

I'd appreciate it if you could supply pKi values for the items below.
Biological target: Human Activated Protein C (h aPC) (Homo sapiens, UniProt P04070)
Sequence (P04070 212-450 limits assumed): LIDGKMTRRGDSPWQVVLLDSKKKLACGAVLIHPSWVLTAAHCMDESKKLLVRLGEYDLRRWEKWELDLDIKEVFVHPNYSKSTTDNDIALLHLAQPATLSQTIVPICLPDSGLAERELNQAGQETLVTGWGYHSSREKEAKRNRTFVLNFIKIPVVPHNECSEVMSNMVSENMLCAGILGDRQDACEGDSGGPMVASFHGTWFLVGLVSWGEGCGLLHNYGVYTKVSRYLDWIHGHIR
Sequence (P04070 43-197 partner limits assumed): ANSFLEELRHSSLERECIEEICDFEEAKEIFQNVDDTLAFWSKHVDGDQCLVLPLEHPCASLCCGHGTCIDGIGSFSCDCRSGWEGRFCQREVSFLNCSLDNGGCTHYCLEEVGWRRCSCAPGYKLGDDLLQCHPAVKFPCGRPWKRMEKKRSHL
Assay: Inhibition of human activated protein C (reference enzyme)
Conditions: Pefachrome PCa substrate
pKi: −log10 of the molar value.

// worked examples, pKi included
# Structure, Assayed system, pKi
records = [
    ("NCc1ccc(Cl)cc1CNC(=O)[C@@H]1CCCN1C(=O)[C@@H](CCC(=O)N1CCOCC1)NC(=O)Cc1ccccc1", "Human Activated Protein C (h aPC) (Homo sapiens, UniProt P04070)", "< 5.00"),
    ("NCc1ccc(Cl)cc1CNC(=O)[C@@H]1CCCN1C(=O)[C@@H](CCC(=O)N1CCNCC1)NS(=O)(=O)Cc1ccccc1", "Human Activated Protein C (h aPC) (Homo sapiens, UniProt P04070)", "< 4.00"),
]

query: Answer with reported pKi of CN1CCN(C(=O)C[C@@H](NS(=O)(=O)Cc2ccccc2)C(=O)N2CCC[C@H]2C(=O)NCc2cc(Cl)ccc2CN)CC1
result: < 4.00

====

Let's go through some recorded Ki values for UniProtKB P09871 together.
Sequence (P09871 438-688 limits assumed): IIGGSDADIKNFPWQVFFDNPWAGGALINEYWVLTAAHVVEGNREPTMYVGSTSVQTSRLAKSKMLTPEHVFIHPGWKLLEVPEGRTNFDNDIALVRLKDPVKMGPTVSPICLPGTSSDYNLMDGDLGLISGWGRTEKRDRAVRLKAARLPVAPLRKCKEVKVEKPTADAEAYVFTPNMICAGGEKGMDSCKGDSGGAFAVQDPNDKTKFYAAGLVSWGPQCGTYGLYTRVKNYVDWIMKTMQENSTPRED
Sequence (P09871 16-437 partner limits assumed): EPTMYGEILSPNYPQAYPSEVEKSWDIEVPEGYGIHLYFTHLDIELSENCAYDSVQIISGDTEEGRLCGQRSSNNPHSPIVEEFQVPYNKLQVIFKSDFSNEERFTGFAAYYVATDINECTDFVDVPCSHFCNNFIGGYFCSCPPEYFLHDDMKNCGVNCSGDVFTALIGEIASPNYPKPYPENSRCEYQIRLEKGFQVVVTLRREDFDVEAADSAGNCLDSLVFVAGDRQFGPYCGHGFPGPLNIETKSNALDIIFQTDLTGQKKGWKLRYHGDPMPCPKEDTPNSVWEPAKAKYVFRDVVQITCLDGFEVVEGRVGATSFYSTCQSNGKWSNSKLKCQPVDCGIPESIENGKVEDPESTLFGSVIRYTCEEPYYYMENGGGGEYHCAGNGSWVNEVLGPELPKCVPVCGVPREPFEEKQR
Where a name gives a salt, the structure may show the parent alone.

# Compound, Assayed system, Ki
data = [
    ("N[C@H]1C[C@@H](C(=O)NCc2cc(Cl)ccc2-n2cnnn2)N(C(=O)[C@@H](CCC(=O)N2CCOCC2)NS(=O)(=O)Cc2ccccc2)C1", "UniProtKB P09871", "> 70 µM"),
    ("NCc1ccc(Cl)cc1CNC(=O)[C@@H]1CCCN1C(=O)[C@@H](CC(=O)N1CC[C@H](N)C1)NS(=O)(=O)Cc1ccccc1", "UniProtKB P09871", "> 30 µM"),
    ("NCc1ccc(Cl)cc1CNC(=O)[C@@H]1CCCCN1C(=O)[C@@H](CC(=O)N1CCOCC1)NS(=O)(=O)Cc1ccccc1", "UniProtKB P09871", "> 50 µM"),
    ("CN(CC1CCOCC1)C(=O)C[C@@H](NS(=O)(=O)Cc1ccccc1)C(=O)N1CCC[C@H]1C(=O)NCc1cc(Cl)ccc1CN [Compound 2.47, TFA]", "UniProtKB P09871", "> 100 µM"),
    ("NCc1ccc(Cl)cc1CNC(=O)[C@@H]1CCCN1C(=O)[C@@H](CC(=O)N1CC[C@H](O)C1)NS(=O)(=O)Cc1ccccc1", "UniProtKB P09871", "> 20 µM"),
]

For each of the compounds below, state Ki.
1. NCc1ccc(Cl)cc1CNC(=O)[C@@H]1CCCN1C(=O)[C@@H](CCC(=O)N1CCC(N)CC1)NS(=O)(=O)Cc1ccccc1
2. NCc1ccc(Cl)cc1CNC(=O)[C@@H]1CCCN1C(=O)[C@@H](CC(=O)N1CC[C@@H](O)C1)NS(=O)(=O)Cc1ccccc1
3. NCc1ccc(Cl)cc1CNC(=O)[C@@H]1C[C@H](O)CN1C(=O)[C@@H](CCC(=O)N1CCOCC1)NS(=O)(=O)Cc1ccccc1
4. NCc1ccc(Cl)cc1CNC(=O)[C@@H]1CCCN1C(=O)[C@@H](CCC(=O)N1CCNCC1)NS(=O)(=O)Cc1ccccc1
5. CC(=O)N1CCC(CN(C)C(=O)C[C@@H](NS(=O)(=O)Cc2ccccc2)C(=O)N2CCC[C@H]2C(=O)NCc2cc(Cl)ccc2CN)CC1

result:
1: > 100 µM; 2: > 50 µM; 3: > 50 µM; 4: > 100 µM; 5: > 100 µM

Taken from patent US8497245B2.
